Consider the following compounds; for each one, report its Percent Effect.
System: Mycobacterium tuberculosis
Test: Cornell - Phenotypic assay to identify agents that inhibit growth of Mycobacterium tuberculosis
Format: functional
Set-up: scale not given: direction of the effect not stated beside the values
Conditions: 10 mM as filed; unlikely as a test dose
The campaign covered roughly 53,000 compounds. About 900 (1.7%) showed an effect of 50% or more. Many of the other results were omitted from the sample, so strong results are more common in it than they were.
Numbers only, in %.

In [3]: df
Out[3]:
                                   compound  numeric_result
0  O=C(Nc1ccnn1Cc1ccc(Cl)cc1)C1CCS(=O)(=O)C1 (stereo not drawn)          -30.31
1           OCCNc1nc(NCCc2ccccc2)nc2nccnc12           11.82
2        CCn1ccc(NS(=O)(=O)c2cccc(COC)c2)n1          -1.872

Record Percent Effect for all entries; do not skip any.
1. Cn1nc(COc2cccnc2)c2c1CCN(CC1CC1)C2.O=C(O)C(F)(F)F.O=C(O)C(F)(F)F
2. COc1ccccc1CNCc1nn(-c2ccccc2)c2c1CCC2
3. CC(=O)NCCC1CCCCN1S(=O)(=O)c1cccc(Cl)c1 (stereo not drawn)
4. CCOCC1CN(Cc2cnn(C)c2)Cc2ncn(C)c21 (stereo not drawn)
5. Cc1nc(CCNC(=O)NC(C)c2ccc3c(c2)OCCO3)cs1 (stereo not drawn)

-- reply
-1.302
75.02
-47.8
21.37
-7.5

Record Percent Effect for all entries; do not skip any.
1. COCCC1(CNC(=O)Nc2ccc(-n3cccn3)cc2)CCC1
2. Cc1noc(C)c1CNCc1nn(-c2ccccc2)c2c1CCC2
3. CCc1ccc(S(=O)(=O)Nc2ccn(CC(=O)OC)n2)cc1
4. Cc1ccc(Oc2cc(CN)ccn2)cc1C.Cl
5. CC(C)CC(=O)N1CC(=O)N(Cc2ccco2)CC(O)C1 (stereo not drawn)

-- reply
[21.41, -25.17, 68.94, -26.7, -16.35]
